# Test system: rodent lifetime carcinogenesis bioassay, tumor incidence TD50
# procedureDetails: carcinogenic potency in animals, long-term in vivo studies, CPDB compilation (AID 1745844)
# conditionSet: mouse; strain Swiss albino; males; in drinking water; site: subcutaneous tissue; lesion: angiosarcoma; dosed 52 weeks; study length 52 weeks
recordedEndpoint: TD50 (mg/kg/day)
# output: bare number, implied unit mg/kg/day

Enter reported TD50 observed with rodent lifetime carcinogenesis bioassay, tumor incidence TD50 for CNNC
0.781

* * *

# System: rodent lifetime carcinogenesis bioassay, tumor incidence TD50
# procedureDetails: carcinogenic potency in animals, long-term in vivo studies, CPDB compilation (AID 1745844)
# conditionSet: rat; strain F344/DuCrj; females; in drinking water; site: nasal cavity; lesion: malignant tumor; dosed 104 weeks; study length 105 weeks
recordedEndpoint: TD50

Enter reported TD50 observed with rodent lifetime carcinogenesis bioassay, tumor incidence TD50 for C1COCCO1
1430 mg/kg/day

* * *

# Test system: rodent lifetime carcinogenesis bioassay, tumor incidence TD50
# procedureDetails: carcinogenic potency in animals, long-term in vivo studies, CPDB compilation (AID 1745844)
# conditionSet: rat; strain Fischer 344; males; by gavage; site: adrenal medulla; lesion: pheochromocytoma benign, bilateral + pheochromocytoma, complex + pheochromocytoma, malignant + pheochromocytoma, benign; dosed 94 weeks; study length 104 weeks
recordedEndpoint: TD50 (mg/kg/day)
# output: bare number, implied unit mg/kg/day

Suppose we examine the compound ClCC(Cl)CCl ; what TD50 value has been reported?
11.4

* * *

# System: rodent lifetime carcinogenesis bioassay, tumor incidence TD50
# procedureDetails: carcinogenic potency in animals, long-term in vivo studies, CPDB compilation (AID 1745844)
# conditionSet: rat; strain Fischer 344; males; in feed; site: liver; lesion: hepatocellular adenoma + hepatocellular carcinoma + neoplastic nodule; dosed 78 weeks; study length 109 weeks
recordedEndpoint: TD50
# output: number + unit

Enter reported TD50 observed with rodent lifetime carcinogenesis bioassay, tumor incidence TD50 for Cc1ccc2c(c1[N+](=O)[O-])C(=O)c1ccccc1C2=O
48.8 mg/kg/day

* * *

# Test system: rodent lifetime carcinogenesis bioassay, tumor incidence TD50
# procedureDetails: carcinogenic potency in animals, long-term in vivo studies, CPDB compilation (AID 1745844)
# conditionSet: rat; strain Fischer 344; females; in feed; site: urinary bladder; lesion: papilloma, NOS + sarcoma, NOS + transitional-cell papilloma; dosed 78 weeks; study length 109 weeks
recordedEndpoint: TD50

Suppose we examine the compound Cc1ccc2c(c1[N+](=O)[O-])C(=O)c1ccccc1C2=O ; what TD50 value has been reported?
224 mg/kg/day

* * *

# Tested on: rodent lifetime carcinogenesis bioassay, tumor incidence TD50
# procedureDetails: carcinogenic potency in animals, long-term in vivo studies, CPDB compilation (AID 1745844)
# conditionSet: rat; strain Sprague-Dawley; females; in feed; site: liver; lesion: cystadenoma; dosed 46 weeks; study length 66 weeks
recordedEndpoint: TD50 (mg/kg/day)
# output: bare number, implied unit mg/kg/day

Enter reported TD50 observed with rodent lifetime carcinogenesis bioassay, tumor incidence TD50 for NNc1nc(-c2ccc([N+](=O)[O-])o2)cs1
295

* * *

molecules and their reported TD50
# Tested on: rodent lifetime carcinogenesis bioassay, tumor incidence TD50
# procedureDetails: carcinogenic potency in animals, long-term in vivo studies, CPDB compilation (AID 1745844)
# conditionSet: mouse; strain Swiss albino; males; in drinking water; site: liver; lesion: several types; types named in the paper; dosed 94 weeks; study length 94 weeks
# output: bare number, implied unit mg/kg/day

Suppose we examine the molecule CCCCCNN ; what TD50 value has been reported?
271

Suppose we examine the molecule O=S(=O)(O)O ; what TD50 value has been reported?
78.4

* * *

# System: rodent lifetime carcinogenesis bioassay, tumor incidence TD50
# procedureDetails: carcinogenic potency in animals, long-term in vivo studies, CPDB compilation (AID 1745844)
# conditionSet: mouse; strain Swiss Webster; males; in feed; site: urinary bladder; lesion: mesenchymal neoplasm; dosed 86 weeks; study length 86 weeks
recordedEndpoint: TD50 (mg/kg/day)
# output: bare number, implied unit mg/kg/day

Suppose we examine the molecule Cc1c(COC(=O)[C@@H]2[C@H](/C=C(\Cl)C(F)(F)F)C2(C)C)cccc1-c1ccccc1 ; what TD50 value has been reported?
286

* * *

# Tested on: rodent lifetime carcinogenesis bioassay, tumor incidence TD50
# procedureDetails: carcinogenic potency in animals, long-term in vivo studies, CPDB compilation (AID 1745844)
# conditionSet: rat; strain Donryu; females; in drinking water; site: any site (literature study); lesion: several types; types named in the paper; dosed 51 weeks; study length 60 weeks
recordedEndpoint: TD50
# output: number + unit

Enter reported TD50 observed with rodent lifetime carcinogenesis bioassay, tumor incidence TD50 for CCOC(=O)N(CC)N=O
0.0784 mg/kg/day

* * *

# Tested on: rodent lifetime carcinogenesis bioassay, tumor incidence TD50
# procedureDetails: carcinogenic potency in animals, long-term in vivo studies, CPDB compilation (AID 1745844)
# conditionSet: rat; strain Fischer 344; males; in drinking water; site: esophagus; lesion: several types; types named in the paper; dosed 30 weeks; study length 55 weeks
recordedEndpoint: TD50

Suppose we examine the molecule CCN=[N+]([O-])CC ; what TD50 value has been reported?
0.0302 mg/kg/day

* * *

# Tested on: rodent lifetime carcinogenesis bioassay, tumor incidence TD50
# procedureDetails: carcinogenic potency in animals, long-term in vivo studies, CPDB compilation (AID 1745844)
# conditionSet: mouse; strain B6C3F1; males; by gavage; site: liver; lesion: hepatocellular carcinoma; dosed 104 weeks; study length 104 weeks
Activity calls are given as the source filed them. The rule behind the calls is not given here.
Could you please pick one outcome from this set? active, inactive

INSERT INTO measurements (molecule, system, assignedclass) VALUES
  ('CCOC(=O)[C@H](CCc1ccccc1)N[C@@H](C)C(=O)N1Cc2ccccc2C[C@H]1C(=O)O', 'rodent lifetime carcinogenesis bioassay, tumor incidence TD50', 'inactive');

# evaluate next
Could you please tell me the result logged for Clc1cc2c(cc1Cl)Oc1cc(Cl)c(Cl)cc1O2 in this assay?
active

* * *

# Test system: rodent lifetime carcinogenesis bioassay, tumor incidence TD50
# procedureDetails: carcinogenic potency in animals, long-term in vivo studies, CPDB compilation (AID 1745844)
# conditionSet: mouse; strain B6C3F1; females; in feed; site: liver; lesion: hepatocellular adenoma + hepatocellular carcinoma + neoplastic nodule; dosed 103 weeks; study length 105 weeks
compounds and their reported TD50
# output: bare number, implied unit mg/kg/day

Use the examples below as a reference point.
INSERT INTO assay_data (compound, recordedendpoint, recordedvalue) VALUES
  ('OB(O)O', 'TD50', 31000),
  ('CC(=O)Nc1ccc(N=Nc2cc(C)ccc2O)cc1', 'TD50', 1020),
  ('Nc1ccc(O)c([N+](=O)[O-])c1', 'TD50', 3650),
  ('CCCCC(CC)COC(=O)CCCCC(=O)OCC(CC)CCCC (configuration not stated)', 'TD50', 3840),
  ('CCCOC(=O)c1cc(O)c(O)c(O)c1', 'TD50', 21400);

Here is the next item to consider.
Enter reported TD50 observed with rodent lifetime carcinogenesis bioassay, tumor incidence TD50 for Oc1ccc2ccccc2c1N=Nc1ccccc1
833

* * *

# Test system: rodent lifetime carcinogenesis bioassay, tumor incidence TD50
# procedureDetails: carcinogenic potency in animals, long-term in vivo studies, CPDB compilation (AID 1745844)
# conditionSet: rat; strain Sprague-Dawley; females; inhaled; site: mammary gland; lesion: adenocarcinoma; dosed 25 weeks; study length 135 weeks
recordedEndpoint: TD50

Enter reported TD50 observed with rodent lifetime carcinogenesis bioassay, tumor incidence TD50 for C=CCl
291 mg/kg/day

* * *

# Test system: rodent lifetime carcinogenesis bioassay, tumor incidence TD50
# procedureDetails: carcinogenic potency in animals, long-term in vivo studies, CPDB compilation (AID 1745844)
# conditionSet: mouse; strain B6C3F1; females; by gavage; site: any site (literature study); lesion: several types; types named in the paper; dosed 88 weeks; study length 104 weeks
recordedEndpoint: TD50 (mg/kg/day)
# output: bare number, implied unit mg/kg/day

Suppose we examine the molecule ClCC(Cl)CCl ; what TD50 value has been reported?
0.806

* * *

# Test system: rodent lifetime carcinogenesis bioassay, tumor incidence TD50
# procedureDetails: carcinogenic potency in animals, long-term in vivo studies, CPDB compilation (AID 1745844)
# conditionSet: rat; strain Fischer 344; males; in feed; site: mammary gland; lesion: fibroadenoma; dosed 104 weeks; study length 109 weeks
recordedEndpoint: TD50 (mg/kg/day)
# output: bare number, implied unit mg/kg/day

Enter reported TD50 observed with rodent lifetime carcinogenesis bioassay, tumor incidence TD50 for NCCCCCCCCCCC(=O)O
2910

* * *

# Tested on: rodent lifetime carcinogenesis bioassay, tumor incidence TD50
# procedureDetails: carcinogenic potency in animals, long-term in vivo studies, CPDB compilation (AID 1745844)
# conditionSet: mouse; strain CDF1; females; in feed; site: liver; lesion: hepatocellular carcinoma; dosed 96 weeks; study length 96 weeks
recordedEndpoint: TD50 (mg/kg/day)
# output: bare number, implied unit mg/kg/day

Suppose we examine the compound Cn1c(N)nc2c3cccnc3ccc21 ; what TD50 value has been reported?
24.1
